Tested on: U2OS
Experiment: cell viability relative to DMSO; higher = less toxic
Conditions: 72 h; 10000 nM
Recorded cell viability, one value per entry.
measurement_name: cell viability (%)

> print(dat)
                         chemical.structure  system  reported.measurement
1                     N[C@@H](CSCCCO)C(=O)O    U2OS                   108
2  Cc1cc2c(C(N)=O)cccc2n1-c1nc2c(c(NCc3ccccc3)n1)COCC2    U2OS                  -0.3
3                        CCOC(=S)SSC(=S)OCC    U2OS                   104
4  Cc1ncc(C)n2nc([C@@H]3C[C@H]3c3nc4c5cccnc5ccn4c3C)nc12    U2OS                  97.9
5  CN1C(=O)N(c2cc(Cl)cc(Cl)c2)C(=O)[C@]12CN(Cc1cc(C(=O)O)cs1)C[C@H]2c1ccc(C#N)cc1    U2OS                   100
6            C[C@H](N)Cn1ccc2cc(F)c(Cl)cc21    U2OS                  93.3
7  CCCCn1c(-c2ccccc2)nc(-c2ccccc2)c1CN(Cc1ccc2c(c1)OCO2)Cc1ccc2c(c1)OCO2    U2OS                  85.6
8  C[C@H](N)C(=O)N[C@@]1(C(=O)O)C[C@@H](Sc2nnc[nH]2)[C@H]2[C@H](C(=O)O)[C@H]21    U2OS                   104
9  C#CC[C@H](c1nc2cc(Cl)ccc2c(=O)n1Nc1ccccc1)N(CCCN)C(=O)c1cccc(Cl)c1F    U2OS                  42.3

---

Tested on: U2OS
Experiment: relative viability EC50 (midpoint between 100% and the lowest measured viability); higher = less toxic
Settings: 72 h
measurement_name: relative viability EC50

compound	measurement_name	reported_measurement
COc1ccc(/C=C\c2cc(OC)c(OC)c(OC)c2)cc1OP(=O)(O)O [fosbretabulin]	relative viability EC50	0.316 µM
C#C[C@]1(O)CC[C@H]2[C@@H]3CCc4cc(OC5CCCC5)ccc4[C@H]3CC[C@@]21C [quinestrol]	relative viability EC50	> 10 µM
CCOC(=O)c1ccccc1OC(=O)CCCCCCCC(=O)Oc1ccccc1C(=O)OCC [TU-2100]	relative viability EC50	> 10 µM
C[C@H](N)C(=O)N[C@@]1(C(=O)O)C[C@@H](Sc2nnc[nH]2)[C@H]2[C@H](C(=O)O)[C@H]21	relative viability EC50	> 10 µM
C=CCNC1=C2C[C@@H](C)C[C@H](OC)[C@H](O)[C@@H](C)/C=C(\C)[C@H](OC(N)=O)[C@@H](OC)/C=C\C=C(/C)C(=O)NC(=CC1=O)C2=O [tanespimycin]	relative viability EC50	0.164 µM
Cc1ccccc1NC(=O)Nc1ccc(CC(=O)N(C)[C@@H](CC(C)C)C(=O)NCC[C@H](NC(=O)[C@@H]2CCCN2S(=O)(=O)c2cc(Cl)cc(Cl)c2)C(=O)O)cc1 [BIO-5192]	relative viability EC50	> 10 µM
CC(C)Cn1cnc2c(N)nc3ccccc3c21 [imiquimod]	relative viability EC50	> 10 µM
